Overview of recorded body weight for various sequences
PROTOCOL: Body and organ weights in C57BL/6 mice
Format: in vivo, mouse
EXPERIMENTAL CONTEXT: Week 3, 50 mg/kg/week
Oligonucleotides are written 5' to 3', each unit as a sugar letter and its base; * is a phosphorothioate linkage, no mark a phosphodiester; rarer units and linkages stand in square brackets, end groups in braces. Plain capitals give the bases only. e = 2'-O-(2-methoxyethyl) (MOE); [5mC] = 5-methylcytosine; d = 2'-deoxy (DNA)
Give the number; g is assumed, so skip it.

Example sequences with recorded body weight:
SEQUENCE TEXT	RECORDED VALUE
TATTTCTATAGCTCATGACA (antisense eT*eA*eT*eT*eT*d[5mC]*dT*dA*dT*dA*dG*d[5mC]*dT*d[5mC]*dA*eT*eG*eA*e[5mC]*eA) [ISIS 447144]	26
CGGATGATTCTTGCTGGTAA (antisense e[5mC]*eG*eG*eA*eT*dG*dA*dT*dT*d[5mC]*dT*dT*dG*d[5mC]*dT*eG*eG*eT*eA*eA) [ISIS 447114]	26
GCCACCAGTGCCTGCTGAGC (antisense eG*e[5mC]*e[5mC]*eA*e[5mC]*d[5mC]*dA*dG*dT*dG*d[5mC]*d[5mC]*dT*dG*d[5mC]*eT*eG*eA*eG*e[5mC]) [ISIS 447143]	27

q: What value of measured body weight is listed for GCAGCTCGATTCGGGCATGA (antisense eG*e[5mC]*eA*eG*e[5mC]*dT*d[5mC]*dG*dA*dT*dT*d[5mC]*dG*dG*dG*e[5mC]*eA*eT*eG*eA) [ISIS 447118] ?
a: 26

###

System: murine TTC39A mRNA
PROTOCOL: Dose-dependent antisense inhibition of murine TTC39A in b.END cells
Type: cell-based, mouse
EXPERIMENTAL CONTEXT: 17.5 nM, ~16 h
Description: Cells were plated at a density of 3,500 cells per well and transfected using cytofectin reagent with 4.375 nM, 8.75 nM, 17.5 nM, 35 nM, 70 nM, and 140 nM concentrations of antisense oligonucleotide, as specified in Table 28. After a treatment period of approximately 16 hours, RNA was isolated from the cells and TTC39A mRNA levels were measured by quantitative real-time PCR. […] TTC39A mRNA levels were adjusted according to total RNA content, as measured by RIBOGREEN®. […]
Oligonucleotides are written 5' to 3', each unit as a sugar letter and its base; * is a phosphorothioate linkage, no mark a phosphodiester; rarer units and linkages stand in square brackets, end groups in braces. Plain capitals give the bases only. e = 2'-O-(2-methoxyethyl) (MOE); [5mC] = 5-methylcytosine; d = 2'-deoxy (DNA)
Label Y when percent inhibition of TTC39A mRNA is at or above 20%; otherwise label N.

SEQUENCE TEXT	GROUP LABEL
CCGCACTTTGATGCCGCCCT (e[5mC]*e[5mC]*eG*e[5mC]*eA*d[5mC]*dT*dT*dT*dG*dA*dT*dG*d[5mC]*d[5mC]*eG*e[5mC]*e[5mC]*e[5mC]*eT; antisense) [ISIS 474435]	N
AGTTGGGACCCAGAAGGCCT (eA*eG*eT*eT*eG*dG*dG*dA*d[5mC]*d[5mC]*d[5mC]*dA*dG*dA*dA*eG*eG*e[5mC]*e[5mC]*eT; antisense) [ISIS 474497]	Y
GCATGTAGAGAACTTCCAGG (eG*e[5mC]*eA*eT*eG*dT*dA*dG*dA*dG*dA*dA*d[5mC]*dT*dT*e[5mC]*e[5mC]*eA*eG*eG; antisense) [ISIS 474382]	Y

q: // inclusive: percent inhibition of TTC39A mRNA at least 20%? input: TCGGTGCCTCTGACACAGCG (eT*e[5mC]*eG*eG*eT*dG*d[5mC]*d[5mC]*dT*d[5mC]*dT*dG*dA*d[5mC]*dA*e[5mC]*eA*eG*e[5mC]*eG; antisense) [ISIS 474474]
a: Y

q: Same again, this time with CGCCTGGACTTCCGGATAGC (e[5mC]*eG*e[5mC]*e[5mC]*eT*dG*dG*dA*d[5mC]*dT*dT*d[5mC]*d[5mC]*dG*dG*eA*eT*eA*eG*e[5mC]; antisense) [ISIS 474369]
a: Y

###

Test system: murine TTC39A mRNA
PROTOCOL: Dose-dependent antisense inhibition of murine TTC39A in b.END cells
Assay type: cell-based, mouse
EXPERIMENTAL CONTEXT: cytofectin, ~16 h
Oligonucleotides are written 5' to 3', each unit as a sugar letter and its base; * is a phosphorothioate linkage, no mark a phosphodiester; rarer units and linkages stand in square brackets, end groups in braces. Plain capitals give the bases only. e = 2'-O-(2-methoxyethyl) (MOE); [5mC] = 5-methylcytosine; d = 2'-deoxy (DNA)
Entries and their pIC50
Here pIC50 is given on a logarithmic scale as minus log10 of the concentration in mol/L.

q: State the recorded pIC50 for this entry: TGCACTGGTCCAGGGCCTCA (eT*eG*e[5mC]*eA*e[5mC]*dT*dG*dG*dT*d[5mC]*d[5mC]*dA*dG*dG*dG*e[5mC]*e[5mC]*eT*e[5mC]*eA; antisense) [ISIS 474351]
a: 7.36

q: Also check AGTTGGGACCCAGAAGGCCT (eA*eG*eT*eT*eG*dG*dG*dA*d[5mC]*d[5mC]*d[5mC]*dA*dG*dA*dA*eG*eG*e[5mC]*e[5mC]*eT; antisense) [ISIS 474497]
a: 7.14

q: Further, for CCGCACTTTGATGCCGCCCT (e[5mC]*e[5mC]*eG*e[5mC]*eA*d[5mC]*dT*dT*dT*dG*dA*dT*dG*d[5mC]*d[5mC]*eG*e[5mC]*e[5mC]*e[5mC]*eT; antisense) [ISIS 474435] ?
a: 7.17

q: Queued: GCCTCAGAATCCTGGTGGGA (eG*e[5mC]*e[5mC]*eT*e[5mC]*dA*dG*dA*dA*dT*d[5mC]*d[5mC]*dT*dG*dG*eT*eG*eG*eG*eA; antisense) [ISIS 474437]
a: 7.31

q: Now try TCCTTGCTCAGCAGGTCGGC (eT*e[5mC]*e[5mC]*eT*eT*dG*d[5mC]*dT*d[5mC]*dA*dG*d[5mC]*dA*dG*dG*eT*e[5mC]*eG*eG*e[5mC]; antisense) [ISIS 474366] .
a: 7.37

q: Could you do the same for TCGGTGCCTCTGACACAGCG (eT*e[5mC]*eG*eG*eT*dG*d[5mC]*d[5mC]*dT*d[5mC]*dT*dG*dA*d[5mC]*dA*e[5mC]*eA*eG*e[5mC]*eG; antisense) [ISIS 474474] , please?
a: 7.48

q: Also GCATGTAGAGAACTTCCAGG (eG*e[5mC]*eA*eT*eG*dT*dA*dG*dA*dG*dA*dA*d[5mC]*dT*dT*e[5mC]*e[5mC]*eA*eG*eG; antisense) [ISIS 474382] ?
a: 7.38

q: Follow-up item: CGCCTGGACTTCCGGATAGC (e[5mC]*eG*e[5mC]*e[5mC]*eT*dG*dG*dA*d[5mC]*dT*dT*d[5mC]*d[5mC]*dG*dG*eA*eT*eA*eG*e[5mC]; antisense) [ISIS 474369]
a: 7.36

q: Another sequence: TCCATGGAGTAGTTCTTGTA (eT*e[5mC]*e[5mC]*eA*eT*dG*dG*dA*dG*dT*dA*dG*dT*dT*d[5mC]*eT*eT*eG*eT*eA; antisense) [ISIS 474452]
a: 7.39

q: Do the same for CACCTGGGTTTGAGGTAGCT (e[5mC]*eA*e[5mC]*e[5mC]*eT*dG*dG*dG*dT*dT*dT*dG*dA*dG*dG*eT*eA*eG*e[5mC]*eT; antisense) [ISIS 474498] please
a: 7.46

###

PROTOCOL: Plasma cholesterol and triglycerides in C57BL/6 mice (Olympus AU400e)
Format: in vivo, mouse
EXPERIMENTAL CONTEXT: Week 0 (before treatment), 50 mg/kg/week
Oligonucleotides are written 5' to 3', each unit as a sugar letter and its base; * is a phosphorothioate linkage, no mark a phosphodiester; rarer units and linkages stand in square brackets, end groups in braces. Plain capitals give the bases only. e = 2'-O-(2-methoxyethyl) (MOE); [5mC] = 5-methylcytosine; d = 2'-deoxy (DNA)
OBSERVABLE: triglyceride levels (mg/dL)
Report the value in mg/dL with no unit label.

Answered examples (3):
SEQUENCE TEXT	triglyceride levels, mg/dL
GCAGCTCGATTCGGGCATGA (antisense eG*e[5mC]*eA*eG*e[5mC]*dT*d[5mC]*dG*dA*dT*dT*d[5mC]*dG*dG*dG*e[5mC]*eA*eT*eG*eA) [ISIS 447118]	82
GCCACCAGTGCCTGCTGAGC (antisense eG*e[5mC]*e[5mC]*eA*e[5mC]*d[5mC]*dA*dG*dT*dG*d[5mC]*d[5mC]*dT*dG*d[5mC]*eT*eG*eA*eG*e[5mC]) [ISIS 447143]	95
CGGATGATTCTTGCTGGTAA (antisense e[5mC]*eG*eG*eA*eT*dG*dA*dT*dT*d[5mC]*dT*dT*dG*d[5mC]*dT*eG*eG*eT*eA*eA) [ISIS 447114]	107

Please examine the following record next.
q: Any idea what its triglyceride levels is? The sequence is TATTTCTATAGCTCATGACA (antisense eT*eA*eT*eT*eT*d[5mC]*dT*dA*dT*dA*dG*d[5mC]*dT*d[5mC]*dA*eT*eG*eA*e[5mC]*eA) [ISIS 447144]
a: 78
